- System: Xanthomonas oryzae pv. oryzae (Xoo) PXO99A
- Method Description: microbe, parasite or virus in culture
- Measurement Setup: read-out: EC50 (mg/L)
EC50 overview
Express the result in mg/L but write the number alone.

Compound	Tested Target	Readout Name	Measurement
C=C[C@]1(C)C[C@@H](OC(=O)CSc2ncc(OC)c(OS(=O)(=O)c3cccc(Br)c3)n2)[C@]2(C)[C@H](C)CC[C@]3(CCC(=O)[C@H]32)[C@@H](C)[C@@H]1O [J7]	Xanthomonas oryzae pv. oryzae (Xoo) PXO99A	EC50	0.27

Indicate the recorded EC50 value for this compound: C=C[C@]1(C)C[C@@H](OC(=O)CSc2ncc(OC)c(OS(=O)(=O)C3CC3)n2)[C@]2(C)[C@H](C)CC[C@]3(CCC(=O)[C@H]32)[C@@H](C)[C@@H]1O [J15]
0.37

Tell us which EC50 value is on record for C=C[C@]1(C)C[C@@H](OC(=O)CSc2ncc(OC)c(OS(=O)(=O)c3cc(Br)c(F)cc3F)n2)[C@]2(C)[C@H](C)CC[C@]3(CCC(=O)[C@H]32)[C@@H](C)[C@@H]1O [J13]
0.22

Indicate its recorded EC50; the compound in question is C=C[C@]1(C)C[C@@H](OC(=O)CSc2ncc(OC)c(OS(=O)(=O)c3c(C)cc(C)cc3C)n2)[C@]2(C)[C@H](C)CC[C@]3(CCC(=O)[C@H]32)[C@@H](C)[C@@H]1O [J19]
0.16

Return value of EC50 for input C=C[C@]1(C)C[C@@H](OC(=O)CSc2ncc(OC)c(OS(=O)(=O)c3ccc(F)cc3)n2)[C@]2(C)[C@H](C)CC[C@]3(CCC(=O)[C@H]32)[C@@H](C)[C@@H]1O [J16] , no commentary.
0.26

* * *

- Test system: Xanthomonas oryzae pv. oryzae (Xoo) PXO99A
- Method Description: microbe, parasite or virus in culture
- Measurement Setup: read-out: EC50 (mg/L)
Readout Name: EC50
Provide a numeric answer, followed by its unit.

Example cases with answers are listed next.
C=C[C@]1(C)C[C@@H](OC(=O)CSc2ncc(OC)c(OS(=O)(=O)c3ccc(F)c(F)c3F)n2)[C@]2(C)[C@H](C)CC[C@]3(CCC(=O)[C@H]32)[C@@H](C)[C@@H]1O 0.22 mg/L
C=C[C@]1(C)C[C@@H](OC(=O)CSc2ncc(OC)c(OS(=O)(=O)c3ccc(Cl)cc3Br)n2)[C@]2(C)[C@H](C)CC[C@]3(CCC(=O)[C@H]32)[C@@H](C)[C@@H]1O 0.3 mg/L

Please list EC50 recorded for the compound `C=C[C@]1(C)C[C@@H](OC(=O)CSc2ncc(OC)c(OS(=O)(=O)c3ccc(Br)cc3OC(F)(F)F)n2)[C@]2(C)[C@H](C)CC[C@]3(CCC(=O)[C@H]32)[C@@H](C)[C@@H]1O`
0.39 mg/L
